System: SK-MEL-2
Test: NCI tumour cell line growth inhibition, 48 h
Active and inactive are the calls of the source. No stated cut-off is given here; in the data, active = GI50 up to about 1.1 µM and inactive = higher.
Measured GI50 of individual entries

Example entries begin here.
Compound	GI50
CCC1CN2CCc3cc(OC)c(OC)cc3C2CC1CC1c2cc(OC)c(OC)cc2CCN1C(=O)C1CCCN1C(=O)OCc1ccccc1 (stereo unspecified)	17.2 µM (inactive)
COc1ccc(/C=C/c2ccnc3ccccc23)cc1OC	19.4 µM (inactive)
Nc1nc(SCC(=O)c2ccc(Br)cc2)c2nc[nH]c2n1	32.1 µM (inactive)
Cc1coc2c1CC1OC1(C)CCC1OC1(C)C2 (stereo unspecified)	> 100 µM (inactive)

Output measured GI50 for this item: `CCOc1cc(NC(C)=O)ccc1C(=O)NN1C(=O)/C(=C/c2ccco2)N=C1c1ccccc1` > 100 µM (inactive)

Identify GI50 associated with the compound `COc1ccc(/C(=N/OCCCC(=O)O)c2cccs2)cc1` > 100 µM (inactive)

* * *

System: NCI-H460
Assay: NCI tumour cell line growth inhibition, 48 h
Activity calls are given as the source filed them. No stated cut-off is given here; in the data, active = GI50 up to about 1.1 µM and inactive = higher.
Form entry, call: pick from Y for active, N for inactive

Worked examples follow.
Molecule	Assigned Category
Cc1cc(NS(=O)(=O)c2ccc(Nc3c4ccccc4nc4c(C(=O)NC(CO)(CO)CO)cccc34)cc2)no1	N
COc1cc(Nc2nnc3n2S(=O)(=O)c2cc(C)c(Cl)cc2S3)cc(OC)c1	N
C/C(=C\CC/C=C(\C)CC/C=C(\C)CCC1SC1(C)C)CC/C=C(\C)CCC1OC1(C)C (stereo unspecified)	N
O=C1C(=O)c2cc([N+](=O)[O-])ccc2-c2ccc([N+](=O)[O-])cc21	Y
O=C1CC2(CCC(O)(c3ccco3)C(C(=O)c3ccco3)C2)C(=O)c2ccccc2N1 (stereo unspecified)	N

Called result for `CC1(C)OB(O)OC1(C)C` N

I would be grateful if you could indicate the recorded call for `COc1cc(/C=C2\C(=O)N(C(=O)Cc3ccccc3)N=C2C)cc(OC)c1OC` . N

Dear colleague, could you share the recorded outcome for `CCOC(=O)C(=O)/C(=C/n1c(=S)[nH]c2ccc([N+](=O)[O-])cc21)C(=O)OCC` when you have a moment? N

Check the results log: what was the call for `O=C1O/C(=C(/c2ccc(Cl)cc2)c2nc3ccccc3[nH]2)C(O)=C1c1ccc(Cl)cc1` ? N

Entry `CC[N+](C)(CC)CCC(O)(c1ccccc1)c1ccccc1` : call = ? N

Kindly provide the recorded test outcome for the following molecule: `Cc1[nH]c(=O)nc(N/N=C/c2ccc(O)cc2)c1C(=O)Nc1ccc(O)cc1` N

# fetch the recorded call for `CCOC(=O)c1c(C)n(Cc2ccccc2)c2c1cc(O)c1[nH]c3c(c12)CCCC3` here N

Can you look up the reported call for `O=C(O)c1ccccc1/C=C1/Cc2ccc3c(c2C1=O)CCC3` for me? N

Per the assay record, what outcome was assigned to `NS(=O)(=O)c1ccc(NC(=S)NC(=O)Nc2ccc(Cl)c(Cl)c2)cc1` ? N

Assay result, entry CCCC(=O)OCC(O)CO (stereo unspecified) — outcome? N

Hi, do you know how COc1cc(/N=N/N(C)C)c(C(C)c2c3cc(OC)c(OC)cc3cc[n+]2C)cc1OC (stereo unspecified) came out in this test? N

* * *

Reported GI50 values for a set of compounds
Test system: TK-10
Experiment: NCI tumour cell line growth inhibition, 48 h
Activity calls are given as the source filed them. Rule as the data show it: active = GI50 up to about 1.1 µM and inactive = higher.

Compound	System Tested	GI50
CC(C)CCCC(C)[C@H]1CC[C@H]2N/C(=N/Cc3ccccc3)CCC[C@]12C (stereo partly specified)	TK-10	2.08 µM (inactive)
CC1SCc2nc3ccccc3n21 (stereo unspecified)	TK-10	> 100 µM (inactive)

Would you kindly look at the next entry?
Hello, please tell me recorded GI50 for this one: COC(=O)C(CCC(=O)CCl)N1C(=O)c2ccccc2C1=O (stereo unspecified) 14.5 µM (inactive)
